- PROTOCOL_TEXT: NCI Yeast Anticancer Drug Screen. Data for the sgs1 mgt1 strain (AID 161);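 also: 0% = growth of cultures given vehicle only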
- CONDITIONS: S. cerevisiae sgs1 mgt1 strain, at 50.0 µM (retest, dose inferred, filed as 5.0)
Compounds without any hit were thinned out: in the full panel of roughly 79,000, 15% have a hit. Active and inactive are the calls of the source. Rule as the data show it: active = growth inhibition above about 70%; inactive = the rest.
Choose the fitting class; nothing outside 1 (yes) for active, 0 (no) for inactive is accepted.

Worked examples, 6 compounds total:
Cc1cc(NCCCCCCNc2cc(C)nc3cc(N(C)C)ccc23)c2ccc(N(C)C)cc2n1	1 (yes)
NC1CCCCC1N.O=C([O-])c1ccc(N=Nc2cccc([N+](=O)[O-])c2)cc1O.O=C([O-])c1ccc(N=Nc2cccc([N+](=O)[O-])c2)cc1O.[Pt+4]	0 (no)
COC(=O)c1cc(-c2ccc([N+](=O)[O-])cc2)c2c(=O)n(-c3ccccc3)[nH]c2n1	1 (yes)
O=C(OCc1ccccc1CN1CCOCC1)c1cccc(Br)c1	1 (yes)
O=C1CCCC/C1=C/c1ccc(Cl)cc1	0 (no)
CCC1=C(c2ccc(OC(C)=O)cc2)Cc2cc(OC(C)=O)ccc21	1 (yes)

Switching to the query record.
INPUT: Entry NCC1CCNCC1 : call = ?
OUTPUT: 0 (no)

----------
- PROTOCOL_TEXT: NCI Yeast Anticancer Drug Screen. Data for the mlh1 rad18 strain (AID 175)
- CONDITIONS: S. cerevisiae mlh1 rad18 strain growth inhibition; at 5.0 µM (retest, dose inferred, filed as 0.5)
The panel holds about 79,000 compounds, 15% with a hit somewhere; the sample as a whole holds those more often. Activity calls are given as the source filed them. Cut-off read from the data, not from the text of the source: active = growth inhibition above about 70%; inactive = the rest.
Choose the fitting class; nothing outside true = active, false = inactive is accepted.

INPUT: Entry CCCCCCCCCCCCCCCC[N+](C)(C)c1ccccc1 : call = ?
OUTPUT: true

INPUT: Entry COc1cc(C)cc(C(=O)OCc2ccccc2)c1C1=C(Cl)C(=O)C(Cl)=CC1=O : call = ?
OUTPUT: false

INPUT: Entry COc1ccc(/C(Cl)=C(/c2ccc(O)cc2)c2ccc(OCCN(C)C)cc2)cc1 : call = ?
OUTPUT: false

----------
- PROTOCOL_TEXT: NCI Yeast Anticancer Drug Screen. Data for the mec2-1 strain (AID 157)
- CONDITIONS: S. cerevisiae mec2-1 strain, at 50.0 µM (retest, dose inferred, filed as 5.0), stronger effect = higher value
About 79,000 compounds went through this panel and 15% of them were active in at least one assay; those are over-represented in the sample as a whole.
Decision: growth inhibition >= 30% yields T, all other cases yield F.

Worked examples, 5 compounds total:
COc1ccc(/C=C2\CCCc3ccccc3C2=O)cc1	T
Cc1ccc2c(n1)C(=O)C=CC2=O	T
CCNc1cc2c3c(c1)CCCN3CCC2	F
CSc1nc2c(c(=O)[nH]1)C1C=C(C)CCC1C(C)(C)C2 (stereo unspecified)	T
Cc1ccc(S(=O)(=O)OC(C=O)C(O)C(O)COC(c2ccccc2)(c2ccccc2)c2ccccc2)cc1 (stereo unspecified)	T

Switching to the query record.
INPUT: Check this compound for growth inhibition at or above 30%: O=Cc1nc2c3cccnc3ccc2n1Cc1ccccc1
OUTPUT: F

----------
- PROTOCOL_TEXT: NCI Yeast Anticancer Drug Screen. Data for the rad50 strain (AID 155);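 also: 0% = growth of vehicle-only cultures of the same strain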
- CONDITIONS: S. cerevisiae rad50 strain growth inhibition; at 50.0 µM; stronger effect = higher value
This is part of a sample that, as a whole, favours compounds with a hit. Of some 79,000 tested, about 15% had one in any assay.
PARAMETER_MEASURED: growth inhibition (%)
Numbers only, in %.

Some compounds with recorded growth inhibition:
COC1/C=C\C=C(/C)C(=O)NC2=CC(=O)C(N)=C(CC(C)CC(OC)C(O)C(C)C=C(C)C1OC(N)=O)C2=O (stereo not given)	86.4
CC(C)CCN(CCC(C)C)C(=S)Nc1ccccc1	92.7
O=C1CCC(Cc2ccc(Cl)cc2Cl)C(=O)N1 (stereo not given)	-7.6
Cn1c(-c2ccccc2)c(CCNC(=O)C2CCC2)c2ccccc21	81.2
CCOC(=O)c1c(Cl)nc2ccccc2c1N=[N+]=[N-]	79.3

Value sought for every listed compound: growth inhibition.
1. CCOC(=O)c1cc(Cc2ccccc2)c(=O)n(C)c1-c1ccccc1
2. CS/C(=N\N=C(/C)c1ccccn1)N1CCN(c2ccccn2)CC1
3. CCOC(=O)CC(=O)/C=C/c1ccncc1
4. CC(/C=C/C(O)=C1/C(=O)CNC1=O)=C\[C@@H](C)[C@H]1O[C@@]2(C)O[C@H](C(=O)[C@@H]3O[C@@]32C)[C@@H]1C

OUTPUT:
1. 72
2. 98.1
3. -19.2
4. 91.8

INPUT: Can you share its growth inhibition? I mean this compound: O=C(Oc1cc(Cl)c(Cl)cc1Cl)c1ccco1
OUTPUT: -1.8
